Procedure details: Solubility of the compound in pH 6.8 phosphate buffer with bile acid by HPLC analysis
Assay type: physicochemical
Measurement label: solubility (µg/mL)
Quick note: give the figure in µg/mL, leave out the unit.

Q: Entry CCCN(CCC)c1ccc(Cl)c2nc(Nc3c(C)cc(Cl)cc3OC)n(C)c12 : reported solubility = ?
Result: 33

* * *

Exercise: state measured logD for each of the compounds provided.
Procedure details: Octanol-water partition co-efficient, log D of the compound at pH 7.4 by HPLC analysis
Type: physicochemical
Quick one: just the number, no unit, thanks!

Q: Entry CCCN(CCC)c1cccc2nc(Nc3c(C)cc(C)cc3C)n(C)c12 : reported logD = ?
Result: 5.23

Q: Entry CCCN(CCC)c1cccc2nc(Nc3c(C)cc(Br)cc3OC)n(C)c12 : reported logD = ?
Result: 5.39

Q: Entry CCCN(CCC)c1cccc2nc(Nc3c(C)cc(C)cc3C)n(C(C)C)c12 : reported logD = ?
Result: 5.9

Q: Entry CCCN(CCC)c1cccc2nc(Nc3c(C)cc(C)cc3C)n(-c3ccccc3)c12 : reported logD = ?
Result: 6.31

Q: Entry CCCN(CCC)c1cccc2nc(Nc3c(C)cc(Cl)cc3C(C)C)n(C)c12 : reported logD = ?
Result: 5.96

* * *

Exercise: state measured pIC50 for each of the compounds provided.
Experimental target: Corticotropin-releasing factor receptor 1 (Homo sapiens, UniProt P34998)
Sequence (P34998 whole entry): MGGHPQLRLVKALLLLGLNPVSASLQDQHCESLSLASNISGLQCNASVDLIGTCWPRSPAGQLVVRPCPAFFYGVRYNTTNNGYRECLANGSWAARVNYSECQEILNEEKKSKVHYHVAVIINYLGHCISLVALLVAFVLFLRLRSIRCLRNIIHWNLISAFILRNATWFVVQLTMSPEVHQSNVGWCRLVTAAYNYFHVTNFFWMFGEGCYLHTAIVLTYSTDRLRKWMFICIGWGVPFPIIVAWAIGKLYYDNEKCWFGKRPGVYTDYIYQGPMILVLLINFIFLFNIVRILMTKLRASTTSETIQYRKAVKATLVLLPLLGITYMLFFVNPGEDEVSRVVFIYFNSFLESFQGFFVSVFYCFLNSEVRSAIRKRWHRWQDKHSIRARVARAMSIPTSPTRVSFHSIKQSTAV
Procedure details: Displacement of [125I]-CRF from human CRF1 receptor expressed in CHO cellular membrane fraction after 1.5 hrs by liquid scintillation counting method
When answering, recall that pIC50 equals minus log10 of the concentration in mol/L, and write that number alone.

Q: Checklist item: pIC50 tested on Corticotropin-releasing factor receptor 1 (Homo sapiens, UniProt P34998), entry CCCN(CCC)c1cccc2nc(Nc3c(C)cc(C)cc3C)oc12 , value?
Result: 6.00

Q: Checklist item: pIC50 tested on Corticotropin-releasing factor receptor 1 (Homo sapiens, UniProt P34998), entry CCCN(CCC)c1cccc2nc(Nc3c(C)cc(C)cc3C)sc12 , value?
Result: 7.11

Q: Checklist item: pIC50 tested on Corticotropin-releasing factor receptor 1 (Homo sapiens, UniProt P34998), entry CCCN(CCC)c1c(Cl)cc(Cl)c2nc(Nc3c(C)cc(Cl)cc3OC)n(C)c12 , value?
Result: 6.77

Q: Checklist item: pIC50 tested on Corticotropin-releasing factor receptor 1 (Homo sapiens, UniProt P34998), entry CCCN(CCC)c1ccc(C#N)c2nc(Nc3c(C)cc(Cl)cc3OC)n(C)c12 , value?
Result: 7.85

Q: Checklist item: pIC50 tested on Corticotropin-releasing factor receptor 1 (Homo sapiens, UniProt P34998), entry CCN(CC)c1ccc(C)c2nc(Nc3c(C)cc(Cl)cc3OC)n(C)c12 , value?
Result: 8.12

Q: Checklist item: pIC50 tested on Corticotropin-releasing factor receptor 1 (Homo sapiens, UniProt P34998), entry CCCN(CCC)c1cccc2nc(Nc3c(C)cc(C)cc3C)n(C(C)C)c12 , value?
Result: 7.01

Q: Checklist item: pIC50 tested on Corticotropin-releasing factor receptor 1 (Homo sapiens, UniProt P34998), entry CCCN(CCC)c1cccc2nc(Nc3ccc(C)cc3C)n(C)c12 , value?
Result: 7.08

Q: Checklist item: pIC50 tested on Corticotropin-releasing factor receptor 1 (Homo sapiens, UniProt P34998), entry CCN(CC)c1ccc(C#N)c2nc(Nc3c(C)cc(Cl)cc3OC)n(C)c12 , value?
Result: 7.89

Q: Checklist item: pIC50 tested on Corticotropin-releasing factor receptor 1 (Homo sapiens, UniProt P34998), entry CCCN(CCC)c1cccc2nc(Nc3c(C)cc(Cl)cc3OC)n(C)c12 , value?
Result: 7.85

Q: Checklist item: pIC50 tested on Corticotropin-releasing factor receptor 1 (Homo sapiens, UniProt P34998), entry COCCN(CCOC)c1cccc2nc(Nc3c(C)cc(Br)cc3OC)n(C)c12 , value?
Result: 7.19

Q: Checklist item: pIC50 tested on Corticotropin-releasing factor receptor 1 (Homo sapiens, UniProt P34998), entry CCCN(CCC)c1cccc2nc(Nc3c(C)cc(Cl)cc3C(C)C)n(C)c12 , value?
Result: 7.66

Q: Checklist item: pIC50 tested on Corticotropin-releasing factor receptor 1 (Homo sapiens, UniProt P34998), entry CCCN(CCC)c1cccc2nc(Nc3c(C)cc(C)cc3C)[nH]c12 , value?
Result: 5.60

Q: Checklist item: pIC50 tested on Corticotropin-releasing factor receptor 1 (Homo sapiens, UniProt P34998), entry CCCCN(CCCC)c1cccc2nc(Nc3c(C)cc(Br)cc3OC)n(C)c12 , value?
Result: 7.85

Q: Checklist item: pIC50 tested on Corticotropin-releasing factor receptor 1 (Homo sapiens, UniProt P34998), entry CCN(CC)c1ccc(OC)c2nc(Nc3c(C)cc(Cl)cc3OC)n(C)c12 , value?
Result: 7.89

Q: Checklist item: pIC50 tested on Corticotropin-releasing factor receptor 1 (Homo sapiens, UniProt P34998), entry CCCN(CCC)c1cccc2nc(Nc3c(C)cc(C)cc3C)n(C)c12 , value?
Result: 7.82

Q: Checklist item: pIC50 tested on Corticotropin-releasing factor receptor 1 (Homo sapiens, UniProt P34998), entry CCN(c1cccc2nc(Nc3c(C)cc(Br)cc3OC)n(C)c12)C(C)C , value?
Result: 7.96
